tested on: Leishmania donovani; assay: Leishmania intramacrophage assay; type: functional, organism-based; parameters: scale not given: in the data most compounds retested in dose-response had high values; details: 30.3 µM; […]
Hit rate of the full screen: of about 69,000 compounds, about 1,000 (1.4%) showed an effect of 50% or more. What follows is part of a selection rich in strong results, with near analogues and random picks from the rest.
outcome measure: Percent Effect (%)
One number for each entry, in %.

Solved entries:
> print(dat)
                                   molecule                  tgt  output.unit  meas.value
1  COc1ccc(CNC(Cc2ccsc2)c2ncccc2C)cc1OC (configuration not stated)  Leishmania donovani            %       25.36
2  COCC(=O)NCc1cc(=O)n2c(n1)CN(C)CCC2.O=C(O)C(F)(F)F  Leishmania donovani            %       39.76
3  CC(C)Oc1cccc(CNC(Cc2ccsc2)c2nccs2)c1.Cl (configuration not stated)  Leishmania donovani            %       -38.1

Batch of 2 molecules: report Percent Effect for each.
1. O=C(c1ccccc1)N1C[C@@H]2CC[C@H](C1)N(C(=O)CN1CCOCC1)C2
2. O=C(NCC(F)(F)C(F)F)c1ccncc1

Return:
12.92
-13.6

Provide Percent Effect for all items below, preserving their order.
1. COc1ccc(CCCC(=O)NCc2c(C)noc2C)cc1F
2. CC1CCN(CC(=O)N(C)CCc2noc(C3CC3)n2)C1=O (configuration not stated)
3. O=C(NCC(F)(F)F)c1ccncc1
4. CC(C)(C)C(=O)NCCC(=O)NC(C)(C)c1ccc2c(c1)OCO2
5. Nc1nc(N2CCCCCC2)ncc1C(=O)NCc1ccc(F)c(Cl)c1
6. CC1c2ncc(Cn3cccn3)n2CCN1S(=O)(=O)C1CC1 (configuration not stated)
7. O=C(O)C(F)(F)F.O=C(O)C(F)(F)F.O=C1COC2(CCN(Cc3cccnc3)CC2)CN1
8. CCc1ccc(C(COC)NC(=O)c2ccc(C(N)=O)cc2)o1 (configuration not stated)

Return:
0.2518
26.42
80.67
2.237
1.039
4.524
22.41
64.18

Dear colleague, could you send me Percent Effect for each of the items below? Thanks.
1. Cc1cnccc1CNCc1ccc(OC23CCCN(CC2)C3)cc1 (configuration not stated)
2. Cn1cccc1C(=O)NCc1cn2c(n1)CN(CC1CCOC1)CC2 (configuration not stated)
3. Cc1cccnc1C(Cc1ccsc1)NCc1cnc(N(C)C)nc1 (configuration not stated)
4. CN(Cc1noc2c1CCCC2)C(=O)CN1C(=O)COc2ccccc21
5. CC(C(=O)Nc1cccc(Cl)c1SC(F)F)S(C)(=O)=O (configuration not stated)

Return:
1. 13.67
2. 22.42
3. 17.18
4. 18.25
5. 58.19

Would you mind listing Percent Effect for each of the following molecules?
1. COCC(=O)NCc1cc(=O)n2c(n1)CN(Cc1ccncc1)CCC2
2. CC(C)(C)c1cc(CN2C[C@H]3CC[C@@H]2CN(Cc2ccccn2)C3)n[nH]1
3. Cc1cccc(CN2C[C@@H]3OCCN(c4ccnc(N(C)C)n4)[C@@H]3C2)c1.O=C(O)C(F)(F)F
4. COCC(=O)NCc1cc(=O)n2c(n1)CN(Cc1ccoc1)CCC2
5. CN(C)c1nccc(N2CCO[C@H]3CN(Cc4nccn4C)C[C@H]32)n1.O=C(O)C(F)(F)F
6. O=C1CCCN1c1cccc(CNCc2nc(-c3ccco3)no2)c1
7. CC(OCc1ccccc1)C(=O)NC1CCN(CC(N)=O)CC1 (configuration not stated)

Return:
1: 55.54; 2: 4.97; 3: -2.723; 4: 10.68; 5: 22.89; 6: -19.6; 7: 21.11

Please give Percent Effect for each item listed below.
1. CCCc1cc(NCCCC2CCOC2)n2nccc2n1 (configuration not stated)
2. Cc1nc(CNCc2cccc(OC34CCCN(CC3)C4)c2)n[nH]1 (configuration not stated)
3. CN(C)CC(=O)N1CC2(CCN(C(=O)Nc3ccccc3)C2)C1.O=C(O)C(F)(F)F

Return:
32.07
36.42
27.48

Please state Percent Effect for every molecule in the list that follows.
1. Cc1cnn(CCNCC(O)c2ccc(F)c(F)c2)c1 (configuration not stated)
2. CC(=O)Nc1nc(CNc2ccccc2CCC(F)(F)F)cs1
3. CN1C(=O)C(c2ccccc2)CC12CCN(CCN)CC2 (configuration not stated)
4. c1ccc(Oc2ccc(OC34CCCN(CC3)C4)cc2)cc1 (configuration not stated)
5. CCCc1cc(CNC2CCN(c3nc4ccccc4s3)CC2)on1
6. CC(=O)N1CC(=O)N(c2cnn(C)c2)CC12CCN(Cc1ccco1)C2 (configuration not stated)

Return:
1. -10.99
2. -4.538
3. 16.5
4. 89.06
5. 35.92
6. 8.312

Record Percent Effect for all entries; do not skip any.
1. CN(CCc1noc(C2CC2)n1)C(=O)CN1C(=O)COc2ccccc21
2. COC(=O)CCNC(=O)c1nnn(-c2ccc(F)cc2)c1C1CC1
3. CNc1nc(C)cc(NC2CCCN(C3Cc4ccccc4C3)C2)n1 (configuration not stated)

Return:
99.57
23.19
58.16
